Recorded metric: melting point

A selection of reference data follows.
| Compound | melting point |
| --- | --- |
| O=S(=O)(Nc1ccccc1OC1CCCCC1)C(F)(F)F | 83 to 85 °C |
| CCC(=O)Nc1cc(-c2c(-c3cccc(C)c3)nc3cccnn23)ccn1 | 138 to 139 °C |

Request: Query: melting point; subject: `COc1ccccc1COc1ccc2c(c1)C=C(C(=O)O)CCS2(=O)=O`
Response: 168 to 171 °C

Request: Query: melting point; subject: `O=S(=O)(NCc1ccc(Cl)cc1)c1cc(Cl)c2cccnc2c1O`
Response: 189 to 190 °C

Request: Query: melting point; subject: Cc1cccc2c1C(=O)C([N+](=O)[O-])C2=O (centres undefined)
Response: 108 to 109 °C

Request: Query: melting point; subject: O=C1COc2ccc(C3=Nn4cnnc4SC3c3ccccn3)cc2N1 (centres undefined)
Response: 216 to 218 °C

Request: Query: melting point; subject: CC(=O)OCC1OC(n2cc(C3=C(n4ccnc4)C(=O)N(C)C3=O)c3cccnc32)C(OC(C)=O)C(OC(C)=O)C1OC(C)=O (centres undefined)
Response: 88 to 90 °C

Request: Query: melting point; subject: `Cc1nsc2nc3ccccc3n12`
Response: 192 to 193 °C

Request: Query: melting point; subject: `CCOC(=O)N(CC(=O)O)C(=O)c1c(Br)ccc2c(C(F)(F)F)c(OC)ccc12`
Response: 167 to 168 °C

====

Recorded metric: melting point

A selection of reference data follows.
| Line notation | Endpoint result |
| --- | --- |
| CCOC(=S)CC/C(C)=C/Cc1c(O)c2c(c(C)c1OC)COC2=O | 63 to 67 °C |
| CCCCCCCCCCCCCCCCCCNC(=O)OC(=O)CCCCCCCCCCCCCCCCC | 84 °C |
| Cc1oc(=O)oc1Cn1cc[nH]c(=O)c1=O | 225 to 226 °C |
| O=C(O)c1ccc(-n2cnnc2)cc1 | > 300 °C |
| CCOC(=O)c1sc(-n2cn[nH]c2=O)nc1C | 165 to 167 °C |

Request: Query: melting point; subject: `Cc1noc(-c2c(C)nc(C#Cc3ccccc3)n2C)n1`
Response: 95 °C

====

A collection of molecules and their measured melting point

A selection of reference data follows.
| Molecule | Endpoint result |
| --- | --- |
| CC(CCC(N)=S)N1C(=O)c2ccccc2C1=O (stereo not given) | 143 to 146 °C |
| COc1ccc(N2CCN(c3c(C)c4c(c(C(C)=O)c3C)OC(C)(C)C4)CC2)cc1 | 156 to 159 °C |
| O=c1c2ccccc2nc(-c2sc(Nc3ccccc3)nc2-c2ccccc2)n1-c1ccccc1Cl | 210 to 212 °C |
| CCCCc1nc(Cl)c(CC(=O)O)n1Cc1ccc([N+](=O)[O-])cc1 | 207 to 210 °C |

Request: Query: melting point; subject: `CC1(C)CN(C2CCN(CCc3ccc(F)cc3)CC2)c2cc(CN)ccc21`
Response: 131 to 133 °C

====

A collection of molecules and their measured melting point

A selection of reference data follows.
| Molecule | melting point |
| --- | --- |
| O=C(O)CCc1ccc(OCCCc2cc(-c3ccc(C(F)(F)F)cc3)no2)cc1 | 174 to 175 °C |
| CCOC(=O)C1=C(C)Nc2ccnc(OC(C)C)c2C1c1cccc(C(F)(F)F)c1 (stereo not given) | 130 to 131 °C |
| CCOC(=O)COc1ccnc2c(N)cccc12 | 94 °C |
| CC(=O)Oc1ccc(-n2c(-c3ccccc3)cc3c2CCc2ccccc2-3)cc1C(=O)O | 194 to 196 °C |
| Cc1c(C=O)c2cnnc(OCc3ccccc3)c2n1Cc1ccccc1 | 147 to 149 °C |

Request: Query: melting point; subject: `CCOC(=O)c1c(C)nc(-c2ccccc2)nc1-c1ccc(OC(C)=O)c([N+](=O)[O-])c1`
Response: 147 to 148 °C

Request: Query: melting point; subject: `CCCSc1cccc2c1C(=O)c1cccc(SCCC)c1C2=O`
Response: 232 to 233 °C

====

Recorded metric: melting point

A selection of reference data follows.
| Compound | melting point |
| --- | --- |
| CCOC(=O)c1ncoc1-c1cc(Cl)nc(Cl)c1 | 108 to 109 °C |
| O=C(NC1CCCCC1)NS(=O)(=O)c1ccc2c(c1)CCN(C(=O)N1CCCCC1)CC2 | 166 to 167 °C |

Request: Query: melting point; subject: `CNc1ncnc(N2CCc3ccccc32)n1`
Response: 185 to 187 °C

Request: Query: melting point; subject: `O=C(Cc1ccccc1)Nc1ncc(-c2ccc(O)cc2)nc1Cc1ccccc1`
Response: 259 to 261 °C

Request: Query: melting point; subject: COC1=CC(C)=NN(NC(=O)N=NS(=O)(=O)C2SCCN2OCC=CCl)N1 (stereo not given)
Response: 145 to 147 °C

====

Recorded metric: melting point

A selection of reference data follows.
| Molecule | Endpoint result |
| --- | --- |
| C=CCSc1nc(-c2ccc(OC)cc2)c(-c2ccc(OC)cc2)s1 | 57 to 58 °C |
| O=C(O)C1=Cc2c(ccc3oc4ccccc4c23)OC1C(F)(F)F (stereo not given) | 254 to 255 °C |
| COC(C)(C)CN1CCC(CNC(=O)c2cc(Cl)c(N)n3cc(C)nc23)CC1 | 211 °C |
| CC(=O)NC(Cc1ccccc1)C(=O)Nc1c(C(C)C)cccc1C(C)C (stereo not given) | 228 to 229 °C |
| Cc1ccc(-c2cccc(C(=O)O)n2)cc1C(=O)NCC12CC3CC(CC(C3)C1)C2 | 227 °C |
| CC#CCOc1cc(/C=C/C(=O)Nc2cc(Cl)ccc2C(=O)NC)ccc1OC | 172 to 173 °C |

Request: Query: melting point; subject: `O=c1[nH]c(=S)c2[nH]cnc2n1-c1ccccc1`
Response: > 290 °C

Request: Query: melting point; subject: `Cn1c(C(F)(F)F)cc(=O)n(-c2c(F)cc(Cl)c3c2OC(C)(C)C3=O)c1=O`
Response: 160 to 162 °C

Request: Query: melting point; subject: `COc1ccc2cc(-c3cc4c(cc3N)OCO4)ccc2c1`
Response: 130 to 132 °C

Request: Query: melting point; subject: `CC(=O)CC(=O)N[C@@H](CC(=O)O)C(=O)O`
Response: 127 to 130 °C

====

Recorded metric: melting point

A selection of reference data follows.
| Compound | melting point |
| --- | --- |
| Oc1ccc2nc(-c3ccc4ccccc4c3)oc2c1 | 226 °C |
| CCC(OC(=O)CS(C)(=O)=O)c1ccc(Cl)c2nc3n(c12)CCCN3c1ccc(Cl)cc1Cl (centres undefined) | 187 to 189 °C |
| COc1ccc(-c2cc(C(C)(O)C(F)(F)F)[nH]c2-c2ccc(OC)cc2)cc1 (centres undefined) | 111 to 112 °C |
| CCC(=O)c1cnc2c(c1)oc(=O)n2C | 110 to 112 °C |
| Cc1cccc(C)c1N1C(=N)C(C)N(c2c(C)cccc2C)C1C(=O)OCc1ccc(Cl)cc1 (centres undefined) | 140 to 142 °C |
| O=C(O)c1ccc(-c2ccc3nnn(Cc4ccc5ncccc5c4)c3n2)cc1 | 245 to 247 °C |
| CCCCN(CC(=O)O)S(=O)(=O)c1ccc(N2CCC(NC[C@H](O)c3ccc(O)c(NS(C)(=O)=O)c3)CC2)cc1 | 125 to 138 °C |
| COc1ccc(-c2nc3ccccc3n3cncc23)cc1 | 187 to 188 °C |

Here is another compound to look at.
Request: Query: melting point; subject: `CCCCc1nc2cccc(CC(=O)O)c2n1Cc1ccccc1Cl`
Response: 216 to 217 °C

====

A collection of compounds and their measured melting point

| Compound | Endpoint result |
| --- | --- |
| Cn1c(=O)n(Cc2ccc(F)cc2)c(=O)c2cc(C(=O)c3nc(Br)c4ccccn34)ccc21 | 280 °C |

Request: Query: melting point; subject: `O=C(O)c1cn2c3c(cccc3c1=O)CCC2`
Response: 256 to 258 °C

Request: Query: melting point; subject: COc1cc(C(C#N)O[Si](C)(C)C(C)(C)C)cc(OC)c1OC (stereo unspecified)
Response: 43 °C

Request: Query: melting point; subject: `COc1ccc(-c2nc(C(=O)C(F)(F)F)[nH]c2-c2ccc(OC)cc2)cc1`
Response: 191 to 192 °C

====

A collection of compounds and their measured melting point

| Compound | Recorded metric | Endpoint result |
| --- | --- | --- |
| COc1ccc2cnc(=O)[nH]c2c1C1CCCC1 | melting point | 201 to 204 °C |
| O=[N+]([O-])c1ccc(OS(=O)(=O)C(F)(F)F)c2oc3ccccc3c12 | melting point | 102 to 103 °C |
| CCCCn1c(=O)c2c(ncn2S(=O)(=O)c2cccc3ccccc23)n(CCCC)c1=O | melting point | 135 to 136 °C |
| CS(=O)(=O)N1CCC(C(=O)N(CCCN2CCC(Cc3ccccc3)CC2)c2ccccc2)CC1 | melting point | 116 to 118 °C |
| CCOC(=O)c1nc(-c2ccc(Cl)c(OC)c2F)cc(N)c1Cl | melting point | 74 to 75 °C |

Here is another compound to look at.
Request: Query: melting point; subject: COc1ccc2nc(NC(=O)C(CC3CCCC3)c3ccc(S(=O)(=O)CCc4ccccc4)cc3)sc2n1 (centres undefined)
Response: 169 to 172 °C
